In this section, each of the compounds is paired with its reported log10(IC50).
# assayedTarget: Acetylcholinesterase (Homo sapiens)
# testName: Inhibition of AChE by Ellman's method
# recordedConditions: read-out: IC50
observable: log10(IC50) (log10 of the value in µM)

• CC(=O)O[C@@H]1C[C@@]2(C)[C@@H]3C[C@H]4OC[C@@]5(C)[C@@H](NC(=O)c6ccccc6)C=C[C@@](O)(CC3=CC[C@]2(C)[C@H]1[C@H](C)N(C)C)[C@@H]45 [BUXAFURANAMIDE] = 1.15
• C[C@@H]1[C@@H]2CC[C@@H]3C(=CC[C@]4(C)[C@@H]([C@H](C)N(C)C)[C@H](O)C[C@@]34C)C=C2CC[C@@H]1N(C)C = 1.41
• C[C@@H]([C@H]1[C@H](O)C[C@@]2(C)[C@@H]3CC[C@@H]4C(=CC3=CC[C@]12C)CC[C@H](N(C)C)C4(C)C)N(C)C = 1.47
• C/C=C1/C(=O)C[C@@]2(C)[C@@H]3CC[C@H]4C(C)(C)[C@@H](N(C)C)CC[C@@]45C[C@@]35CC[C@]12C = 1.76
• C[C@@H]([C@H]1[C@H](O)C[C@@]2(C)[C@@H]3C=C[C@H]4C(C)(C)[C@@H](N(C)C)[C@H](O)C[C@@]45C[C@@]35CC[C@]12C)N(C)C = 1.36
• CC(=O)O[C@H]1C[C@@H]2C(=CC[C@]3(C)[C@@H]([C@H](C)N(C)C)[C@H](O)C[C@@]23C)C[C@@]23O[C@@H]2[C@H]2OC[C@](C)([C@H]2NC(=O)c2ccccc2)[C@H]13 = 0.48
• CN[C@H]1CCC2=CC3=CC[C@]4(C)[C@@H]([C@H](C)N(C)C)[C@H](O)C[C@@]4(C)[C@@H]3CC[C@H]2C1(C)C = 1.60

---

# assayedTarget: Acetylcholinesterase (Homo sapiens, UniProt P22303)
# Sequence (P22303 whole entry): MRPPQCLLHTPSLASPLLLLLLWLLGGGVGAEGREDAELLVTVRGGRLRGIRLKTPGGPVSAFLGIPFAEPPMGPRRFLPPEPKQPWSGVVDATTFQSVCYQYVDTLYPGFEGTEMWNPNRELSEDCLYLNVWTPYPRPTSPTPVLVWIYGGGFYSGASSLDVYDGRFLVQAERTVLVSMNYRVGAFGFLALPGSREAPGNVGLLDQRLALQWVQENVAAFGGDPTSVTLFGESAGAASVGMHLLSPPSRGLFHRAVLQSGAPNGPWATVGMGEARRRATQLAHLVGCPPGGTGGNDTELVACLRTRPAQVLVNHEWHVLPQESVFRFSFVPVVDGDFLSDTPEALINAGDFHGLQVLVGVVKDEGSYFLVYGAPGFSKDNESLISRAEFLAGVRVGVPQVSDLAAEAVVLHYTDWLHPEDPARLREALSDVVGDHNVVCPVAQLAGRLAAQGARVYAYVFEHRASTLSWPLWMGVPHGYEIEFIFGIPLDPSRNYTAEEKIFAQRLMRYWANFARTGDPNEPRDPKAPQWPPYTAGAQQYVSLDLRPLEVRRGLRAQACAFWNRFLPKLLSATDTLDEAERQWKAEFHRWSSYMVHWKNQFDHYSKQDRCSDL
# testName: Inhibition of AChE by Ellman's method
# recordedConditions: read-out: IC50
pIC50: −log10 of the molar value.
In this section, each of the molecules is paired with its reported pIC50.
observable: pIC50

* CC(=O)O[C@@H]1C[C@@]2(C)[C@@H]3CC[C@H]4[C@](C)(CO)[C@@H](NC(=O)c5ccccc5)C=C[C@]4(O)CC3=CC[C@]2(C)[C@H]1[C@H](C)N(C)C | 4.52
* C[C@@H]([C@H]1[C@H](O)C[C@@]2(C)[C@@H]3C[C@H](O)[C@H]4[C@]5(C)CO[C@]4(C=C[C@@H]5NC(=O)c4ccccc4)CC3=CC[C@]12C)N(C)C | 5.07
* C[C@@H]([C@H]1CC[C@@]2(C)[C@@H]3CC[C@@H]4C(=CC3=CC[C@]12C)CC[C@H](N(C)C)C4(C)C)N(C)C | 4.10
